# tested_on: Replicase polyprotein 1ab (Severe acute respiratory syndrome coronavirus 2, UniProt P0DTD1)
Give IC50 for every item shown.
// return numeric value only (unit: nM, not printed)

Data point: CC(C)C[C@H](NC(=O)OCC1CCN(Cc2ccccc2)C1=O)C(=O)N[C@H](C=O)C[C@@H]1CCNC1=O (stereo partly specified) ; IC50 = 790

Data point: CC(C)C[C@H](NC(=O)OC[C@@H]1CCC(=O)N1Cc1ccc2c(c1)OC(F)(F)O2)C(=O)N[C@@H](C[C@@H]1CCNC1=O)C(O)S(=O)(=O)O (stereo partly specified) ; IC50 = 320

Data point: CC(C)C[C@H](NC(=O)OC[C@@H]1CCC(=O)N1C[C@H]1C[C@@H]2C=C[C@H]1C2)C(=O)N[C@@H](C[C@@H]1CCNC1=O)C(O)S(=O)(=O)O (stereo partly specified) ; IC50 = 450

Data point: CC(C)C[C@H](NC(=O)OCC1CC(=O)N(CC2CC3CCC2C3)C1)C(=O)N[C@H](C=O)C[C@@H]1CCNC1=O (stereo partly specified) ; IC50 = 160

Data point: CC(C)C[C@H](NC(=O)OC[C@@H]1CCC(=O)N1CC1CCC(F)(F)CC1)C(=O)N[C@@H](C[C@@H]1CCNC1=O)C(O)S(=O)(=O)O (stereo partly specified) ; IC50 = 540

Data point: CC(C)C[C@H](NC(=O)OC[C@@H]1CCC(=O)N1Cc1cccc(Cl)c1)C(=O)N[C@H](C=O)C[C@@H]1CCNC1=O ; IC50 = 110

Data point: CC(C)C[C@H](NC(=O)OC[C@H]1CCC(=O)N1CC1CCCCC1)C(=O)N[C@H](C=O)C[C@@H]1CCNC1=O ; IC50 = 500

Data point: CC(C)C[C@H](NC(=O)OCC1CCN(CC2CCCCC2)C1=O)C(=O)N[C@H](C=O)C[C@@H]1CCNC1=O (stereo partly specified) ; IC50 = 230

Data point: CC(C)C[C@H](NC(=O)OCC1CC(=O)N(CC2CCCCC2)C1)C(=O)N[C@H](C=O)C[C@@H]1CCNC1=O (stereo partly specified) ; IC50 = 310

Data point: CC(C)C[C@H](NC(=O)OC[C@@H]1CCC(=O)N1C[C@H]1C[C@@H]2CC[C@H]1C2)C(=O)N[C@@H](C[C@@H]1CCNC1=O)C(O)S(=O)(=O)O (stereo partly specified) ; IC50 = 410

Data point: CC(C)C[C@H](NC(=O)OC[C@@H]1CCC(=O)N1C[C@H]1C[C@@H]2C=C[C@H]1C2)C(=O)N[C@H](C=O)C[C@@H]1CCNC1=O ; IC50 = 418

###

Give IC50 for every item shown.
// return numeric value only (unit: µM, not printed)

Known value: UniProt P0DTD1 IC50 of the compound CC(C)C[C@H](NC(=O)OCC1CCN(C[C@H]2C[C@H]3CC[C@@H]2C3)C1=O)C(=O)N[C@@H](C[C@@H]1CCNC1=O)C(O)S(=O)(=O)O (some centres undefined) equals 0.51

Known value: UniProt P0DTD1 IC50 of the compound CC(C)C[C@H](NC(=O)OC[C@@H]1CCC(=O)N1Cc1cccc(C(F)(F)F)c1)C(=O)N[C@H](C=O)C[C@@H]1CCNC1=O equals 0.74

Known value: UniProt P0DTD1 IC50 of the compound CC(C)C[C@H](NC(=O)OC[C@@H]1CCC(=O)N1Cc1ccco1)C(=O)N[C@H](C=O)C[C@@H]1CCNC1=O equals 0.33

Known value: UniProt P0DTD1 IC50 of the compound CC(C)C[C@H](NC(=O)OCC1CCN(CC2CCCCC2)C1=O)C(=O)N[C@@H](C[C@@H]1CCNC1=O)C(O)S(=O)(=O)O (some centres undefined) equals 0.22
